From: patent US20120219559A1

# System Under Test: T1, ICOS (Mus musculus, UniProt Q9WVS0)
# T1 sequence (membrane protein, looked up): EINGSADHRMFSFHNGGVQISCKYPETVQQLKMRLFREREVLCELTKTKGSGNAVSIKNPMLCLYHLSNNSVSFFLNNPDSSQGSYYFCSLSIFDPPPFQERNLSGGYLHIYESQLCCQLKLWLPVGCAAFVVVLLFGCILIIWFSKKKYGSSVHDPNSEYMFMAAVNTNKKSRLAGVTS
# Protocol Details: CDS well image, 293T cells transfected with the mouse gene, stained with the mouse fusion protein

>  <Binder>
mouse CD28Ig fusion protein (Fc fusion, UniProt P31041 20-149, looked up, Bought from R&D Systems; Ig (Fc) part not given) NKILVKQSPLLVVDSNEVSLSCRYSYNLLAKEFRASLYKGVNSDVEVCVGNGNFTYQPQFRSNAEFNCDGDFDNETVTFRLWNLHVNHTDIYFCKIEFMYPPPYLDNERSNGTIIHIKEKHLCHTQSSPK

>  <binding result>
no binding

$$$$
>  <Binder>
ICOSIg (Fc fusion, Mus musculus, UniProt Q9WVS0 21-144, looked up, Ig fusion protein purchased from R&D systems; also called mouse ICOSIg fusion protein) fusion protein: EINGSADHRMFSFHNGGVQISCKYPETVQQLKMRLFREREVLCELTKTKGSGNAVSIKNPMLCLYHLSNNSVSFFLNNPDSSQGSYYFCSLSIFDPPPFQERNLSGGYLHIYESQLCCQLKLWL

>  <binding result>
no binding

$$$$
>  <Binder>
PD-1Ig (Fc fusion, Mus musculus, UniProt Q02242 25-167, looked up, Ig fusion protein purchased from R&D systems; also called mouse PD-1Ig fusion protein) fusion protein: LEVPNGPWRSLTFYPAWLTVSEGANATFTCSLSNWSEDLMLNWNRLSPSNQTEKQAAFCNGLSQPVQDARFQIIQLPNRHDFHMNILDTRRNDSGIYLCGAISLHPKAKIEESPGAELVVTERILETSTRYPSPSPKPEGRFQ

>  <binding result>
no binding

$$$$
